Molecular target: JAK3 (Homo sapiens, UniProt P52333)
Construct: endogenous in cells; host or cells: Molt4 (ATCC CRL-1582) and Ramos (ATCC CRL-1596), mixed lysate 1:2
Sequence (P52333 whole entry): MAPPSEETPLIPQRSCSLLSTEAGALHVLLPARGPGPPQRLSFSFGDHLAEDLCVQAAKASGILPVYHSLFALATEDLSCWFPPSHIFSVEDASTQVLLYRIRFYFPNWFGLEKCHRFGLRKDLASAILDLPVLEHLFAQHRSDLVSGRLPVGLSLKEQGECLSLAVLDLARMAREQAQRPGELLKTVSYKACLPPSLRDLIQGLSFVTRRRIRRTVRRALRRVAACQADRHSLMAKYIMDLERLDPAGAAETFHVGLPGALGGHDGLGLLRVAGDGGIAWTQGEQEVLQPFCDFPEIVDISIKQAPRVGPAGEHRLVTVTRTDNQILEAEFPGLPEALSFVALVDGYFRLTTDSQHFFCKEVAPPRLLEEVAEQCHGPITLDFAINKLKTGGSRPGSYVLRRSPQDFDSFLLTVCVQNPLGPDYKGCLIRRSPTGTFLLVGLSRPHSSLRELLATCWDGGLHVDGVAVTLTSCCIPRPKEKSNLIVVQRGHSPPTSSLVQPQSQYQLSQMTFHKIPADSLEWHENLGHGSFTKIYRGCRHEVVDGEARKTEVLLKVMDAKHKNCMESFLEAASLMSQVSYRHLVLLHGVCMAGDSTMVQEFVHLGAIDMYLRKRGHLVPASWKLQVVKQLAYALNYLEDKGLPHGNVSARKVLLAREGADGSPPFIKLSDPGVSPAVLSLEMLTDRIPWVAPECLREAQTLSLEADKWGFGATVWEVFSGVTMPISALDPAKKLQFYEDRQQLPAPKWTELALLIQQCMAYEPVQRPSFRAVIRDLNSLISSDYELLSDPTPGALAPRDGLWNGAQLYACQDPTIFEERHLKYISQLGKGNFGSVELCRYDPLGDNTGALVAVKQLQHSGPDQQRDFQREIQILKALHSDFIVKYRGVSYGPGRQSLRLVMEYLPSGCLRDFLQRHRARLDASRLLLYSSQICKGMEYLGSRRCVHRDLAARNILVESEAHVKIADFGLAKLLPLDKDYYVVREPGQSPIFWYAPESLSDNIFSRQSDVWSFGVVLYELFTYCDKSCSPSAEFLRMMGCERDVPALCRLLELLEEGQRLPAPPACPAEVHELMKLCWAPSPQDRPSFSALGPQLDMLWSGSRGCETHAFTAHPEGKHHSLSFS
Test: Kinobeads assay, JAK3
Format: binding
Conditions: mixed Molt4/Ramos lysate, read-out: Inhibition values (IC50) JAK3
Method: The compounds of the present invention as described in the previous examples were tested in a Kinobeads™ assay as described for ZAP-70 (WO-A 2007/137867). […] Bound proteins were then eluted and the presence of JAK1, JAK2, JAK3 and TYK2 was detected and quantified using specific antibodies in a dot blot procedure and the Odyssey infrared detection system. Dose response curves for individual kinases were generated and IC50 values calculated. […]
Entries and their IC50 values follow.

Examples from the recorded data:
COc1ccccc1[C@@H](CO)Nc1nc(Nc2cnn(CCO)c2)ncc1Cl [Compound 76]; < 100 nM
Cn1cc(Nc2ncc(Cl)c(N[C@H](CO)c3cccc(N4CCOCC4=O)c3)n2)cn1 [Compound 138]; < 100 nM

Which IC50 is reported for this compound? Cn1cc(Nc2ncc(Cl)c(N[C@H](CO)c3ccccc3F)n2)cn1 [Compound 58]
< 100 nM

// IC50 lookup, key: COC(=O)C(Nc1nc(Nc2cnn(C)c2)ncc1Cl)c1ccccc1 (centres unmarked) [Compound 16]
100 to 1000 nM

What IC50 value was documented for this compound, CCn1cc(Nc2ncc(Cl)c(N[C@H](CO)c3ccccc3F)n2)cn1 [Compound 109] ?
< 100 nM

====

Target: JAK3 (Homo sapiens, UniProt P52333)
Construct: endogenous in cells
Experiment: Kinobeads assay, JAK3
Settings: mixed Molt4/Ramos lysate, read-out: Inhibition values (IC50) JAK3
pIC50: −log10 of the molar value.
assay metric: pIC50

Before answering, review these 6 worked examples.
Cn1cc(Nc2ncc(Cl)c(N[C@H](CO)c3cccc(F)c3)n2)cn1; > 7.00
OCCn1cc(Nc2ncc(Cl)c(NC(CO)c3c(F)cccc3F)n2)cn1 (centres unmarked); > 7.00
COc1ccccc1[C@@H](CO)Nc1nc(Nc2cnn(CC(=O)N3CCOCC3)c2)ncc1Cl; > 7.00
CC[C@@H](Nc1nc(Nc2cnn(C)c2)ncc1Cl)c1ccccc1; 6.00 to 7.00
O=C([C@@H](Nc1nc(Nc2cnn(CCO)c2)ncc1Cl)c1ccccc1)N1CCCC1; 6.00 to 7.00
OCCn1cc(Nc2ncc(Cl)c(N[C@H](CO)c3ccccc3)n2)cn1; > 7.00

Look at this compound and give its reported pIC50. `Cn1cc(Nc2ncc(F)c(N[C@H](CO)c3cc(F)ccc3F)n2)cn1`
> 7.00

Sample `NC(=O)Cn1cc(Nc2ncc(F)c(N[C@H](CO)c3cc(F)cc(F)c3)n2)cn1` — what was its pIC50?
> 7.00

====

Biological target: JAK2 (Homo sapiens)
Construct: endogenous in cells
Sequence (O60674 whole entry): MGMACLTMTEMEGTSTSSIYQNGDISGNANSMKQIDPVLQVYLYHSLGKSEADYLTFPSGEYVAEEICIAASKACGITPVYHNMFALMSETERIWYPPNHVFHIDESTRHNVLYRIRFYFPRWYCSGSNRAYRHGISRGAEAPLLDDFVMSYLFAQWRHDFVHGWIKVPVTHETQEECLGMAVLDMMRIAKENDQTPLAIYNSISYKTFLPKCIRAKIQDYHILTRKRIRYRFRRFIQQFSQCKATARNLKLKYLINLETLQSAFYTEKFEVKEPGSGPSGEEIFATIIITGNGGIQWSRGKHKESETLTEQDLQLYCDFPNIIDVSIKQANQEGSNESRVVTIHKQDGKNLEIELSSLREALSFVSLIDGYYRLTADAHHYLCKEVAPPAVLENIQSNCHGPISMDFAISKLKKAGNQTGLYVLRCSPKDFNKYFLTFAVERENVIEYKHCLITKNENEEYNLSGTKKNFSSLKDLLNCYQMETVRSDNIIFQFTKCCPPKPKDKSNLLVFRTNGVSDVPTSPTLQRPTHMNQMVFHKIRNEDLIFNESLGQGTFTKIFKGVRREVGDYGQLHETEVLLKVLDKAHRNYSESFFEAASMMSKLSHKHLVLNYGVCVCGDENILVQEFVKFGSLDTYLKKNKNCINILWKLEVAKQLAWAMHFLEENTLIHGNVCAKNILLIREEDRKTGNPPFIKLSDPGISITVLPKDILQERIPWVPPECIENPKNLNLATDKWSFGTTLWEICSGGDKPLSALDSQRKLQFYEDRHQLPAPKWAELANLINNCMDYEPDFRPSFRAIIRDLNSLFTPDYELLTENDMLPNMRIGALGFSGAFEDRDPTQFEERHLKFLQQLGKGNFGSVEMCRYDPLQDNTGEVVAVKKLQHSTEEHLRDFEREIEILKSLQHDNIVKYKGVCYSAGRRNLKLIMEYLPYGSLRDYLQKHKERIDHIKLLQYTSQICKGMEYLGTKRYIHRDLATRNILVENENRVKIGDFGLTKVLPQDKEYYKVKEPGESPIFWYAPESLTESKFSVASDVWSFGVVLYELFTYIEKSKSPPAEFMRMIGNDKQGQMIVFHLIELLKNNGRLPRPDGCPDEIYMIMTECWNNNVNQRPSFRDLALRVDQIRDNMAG
Experiment: Kinobeads assay, JAK2
Conditions: mixed Molt4/Ramos lysate, read-out: Inhibition values (IC50) JAK2
pIC50: −log10 of the molar value.
assay metric: pIC50

COc1cccc([C@@H](CO)Nc2nc(Nc3cnn(CC(=O)N4CCOCC4)c3)ncc2Cl)c1 [Compound 102]; ≤ 5.00
Cn1cc(Nc2ncc(F)c(N[C@H](CO)c3ccccc3)n2)cn1 [Compound 3]; ≤ 5.00
CC(C)n1cc(Nc2ncc(Cl)c(N[C@H](CO)c3ccccc3F)n2)cn1 [Compound 110]; 6.00 to 7.00
COc1cccc([C@@H](CO)Nc2nc(Nc3cnn(C(C)C)c3)ncc2Cl)c1 [Compound 106]; 5.00 to 6.00
Cn1cc(Nc2ncc(Cl)c(N[C@H](CO)c3cc(F)cc(F)c3)n2)cn1 [Compound 142]; 6.00 to 7.00
Cn1cc(-c2cc(F)cc([C@@H](CO)Nc3nc(Nc4cnn(CCO)c4)ncc3Cl)c2)cn1 [Compound 152]; 5.00 to 6.00
COCCNC(=O)[C@@H](Nc1nc(Nc2cnn(C)c2)ncc1Cl)c1ccccc1 [Compound 29]; 5.00 to 6.00

Which pIC50 is listed for CNC(=O)[C@@H](Nc1nc(Nc2cnn(C)c2)ncc1Cl)c1ccccc1 [Compound 20] ?
≤ 5.00

====

Biological target: JAK1 (Homo sapiens)
Construct: endogenous in cells
Sequence (P23458 whole entry): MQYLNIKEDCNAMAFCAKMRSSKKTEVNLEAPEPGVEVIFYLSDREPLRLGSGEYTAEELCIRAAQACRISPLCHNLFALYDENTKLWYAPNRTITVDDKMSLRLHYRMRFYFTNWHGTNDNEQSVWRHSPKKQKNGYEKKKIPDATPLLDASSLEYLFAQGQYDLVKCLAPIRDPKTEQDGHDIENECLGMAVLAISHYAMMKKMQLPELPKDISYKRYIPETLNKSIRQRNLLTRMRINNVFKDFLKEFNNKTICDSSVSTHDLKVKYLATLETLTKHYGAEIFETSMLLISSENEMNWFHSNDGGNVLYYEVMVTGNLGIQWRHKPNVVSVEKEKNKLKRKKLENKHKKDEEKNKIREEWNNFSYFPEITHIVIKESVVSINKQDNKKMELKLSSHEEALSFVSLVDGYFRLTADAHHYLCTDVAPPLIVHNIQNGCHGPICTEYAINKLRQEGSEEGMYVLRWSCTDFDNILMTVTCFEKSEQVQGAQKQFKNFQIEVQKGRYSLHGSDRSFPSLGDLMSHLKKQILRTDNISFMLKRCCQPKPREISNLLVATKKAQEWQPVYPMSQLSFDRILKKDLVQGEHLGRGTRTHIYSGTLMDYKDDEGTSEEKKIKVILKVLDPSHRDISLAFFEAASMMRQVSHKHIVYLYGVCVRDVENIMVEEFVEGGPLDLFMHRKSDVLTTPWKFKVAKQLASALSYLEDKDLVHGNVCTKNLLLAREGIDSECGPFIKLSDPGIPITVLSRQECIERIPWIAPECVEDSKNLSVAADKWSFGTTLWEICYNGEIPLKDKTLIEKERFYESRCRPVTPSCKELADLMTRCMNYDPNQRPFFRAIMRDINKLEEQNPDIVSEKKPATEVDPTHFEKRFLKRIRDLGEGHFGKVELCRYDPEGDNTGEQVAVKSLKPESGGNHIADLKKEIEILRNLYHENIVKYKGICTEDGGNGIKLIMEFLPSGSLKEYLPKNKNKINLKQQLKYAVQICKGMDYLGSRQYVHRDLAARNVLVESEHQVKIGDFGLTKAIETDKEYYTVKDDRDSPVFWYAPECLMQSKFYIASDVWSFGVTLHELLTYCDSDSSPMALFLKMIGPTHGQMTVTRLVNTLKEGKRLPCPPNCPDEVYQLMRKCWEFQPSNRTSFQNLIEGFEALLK
Experiment: Kinobeads assay, JAK1
Details: mixed Molt4/Ramos lysate, read-out: Inhibition values (IC50) JAK1
assay metric: IC50

Below are worked cases with known answers.
CC(O)Cn1cc(Nc2ncc(Cl)c(NC(CO)c3c(F)cccc3F)n2)cn1 (centres unmarked); 1000 to 10000 nM
NC(=O)Cn1cc(Nc2ncc(F)c(N[C@H](CO)c3cc(F)cc(F)c3)n2)cn1; 100 to 1000 nM
OCCn1cc(Nc2ncc(Cl)c(NC(CO)c3cccc(Br)c3)n2)cn1 (centres unmarked); 1000 to 10000 nM
CC(C)OCCn1cc(Nc2ncc(Cl)c(N[C@H](CO)c3ccccc3)n2)cn1; 1000 to 10000 nM
Cc1cnc(Nc2cnn(CC(=O)N3CCOCC3)c2)nc1NC(CO)c1c(F)cccc1F (centres unmarked); 1000 to 10000 nM
CC(C)(O)Cn1cc(Nc2ncc(Cl)c(NC(CO)c3c(F)cccc3F)n2)cn1 (centres unmarked); 1000 to 10000 nM
COC(=O)C(Nc1nc(Nc2cnn(CCO)c2)ncc1Cl)c1ccccc1 (centres unmarked); 1000 to 10000 nM

Okay, now this compound:
Could you tell me which IC50 is on file for OCCn1cc(Nc2ncc(Cl)c(NC(CO)c3ccccc3F)n2)cn1 (centres unmarked) ?
100 to 1000 nM

====

Biological target: JAK1 (Homo sapiens)
Construct: endogenous in cells
Assay: Kinobeads assay, JAK1
Conditions: mixed Molt4/Ramos lysate, read-out: Inhibition values (IC50) JAK1
assay metric: IC50

Known results for compounds:
NCCCn1cc(Nc2ncc(Cl)c(N[C@H](CO)c3ccccc3)n2)cn1 [Compound 113]; 1 to 10 µM
NC(=O)Cn1cc(Nc2ncc(F)c(N[C@H](CO)c3ccccc3)n2)cn1 [Compound 108]; 1 to 10 µM

May I ask what IC50 has been recorded for Cn1cc(Nc2ncc(Cl)c(N[C@H](CO)c3cccc(-c4cnn(C)c4)c3)n2)cn1 [Compound 136] ?
> 10 µM

Which IC50 reading was recorded for the compound O=C(Cn1cc(Nc2ncc(Cl)c(N[C@H](CO)c3ccccc3)n2)cn1)NC1CC1 [Compound 68] ?
0.1 to 1 µM

====

Target: JAK3 (Homo sapiens)
Construct: endogenous in cells
Test: Kinobeads assay, JAK3
Conditions: mixed Molt4/Ramos lysate, read-out: Inhibition values (IC50) JAK3
assay metric: IC50

Take a look at these entries with their results.
Cn1cc(Nc2ncc(Cl)c(N[C@H](CO)c3ccccc3)n2)cn1; < 0.1 µM
CC(C)NC(=O)Cn1cc(Nc2ncc(Cl)c(N[C@H](CO)c3ccccc3)n2)cn1; < 0.1 µM
CNC(=O)Cn1cc(Nc2ncc(F)c(N[C@H](CO)c3cc(F)cc(F)c3)n2)cn1; < 0.1 µM
OCCn1cc(Nc2ncc(Cl)c(NC(CO)c3cccc(Br)c3)n2)cn1 (centres unmarked); 0.1 to 1 µM
Cn1cc(Nc2ncc(Cl)c(NC(C(=O)O)c3ccccc3)n2)cn1 (centres unmarked); < 0.1 µM
Cn1cc(-c2cccc(C(CO)Nc3nc(Nc4cnn(CCO)c4)ncc3Cl)c2)cn1 (centres unmarked); 0.1 to 1 µM

Data request, read-out IC50, for `OCCn1cc(Nc2ncc(F)c(N[C@H](CO)c3cc(F)cc(F)c3)n2)cn1`
< 0.1 µM

Would you kindly share the measured IC50 for OCCn1cc(Nc2ncc(Cl)c(NC(CO)c3cc(F)cc(F)c3)n2)cn1 (centres unmarked) ?
< 0.1 µM

====

Target: JAK1 (Homo sapiens)
Construct: endogenous in cells
Assay: Kinobeads assay, JAK1
Details: mixed Molt4/Ramos lysate, read-out: Inhibition values (IC50) JAK1
assay metric: IC50

CNC(=O)Cn1cc(Nc2ncc(Cl)c(N[C@H](CO)c3ccccc3OC)n2)cn1; 0.1 to 1 µM
O=C(NCCO)[C@@H](Nc1nc(Nc2cnn(CCO)c2)ncc1Cl)c1ccccc1; 0.1 to 1 µM
COc1ccccc1[C@@H](CO)Nc1nc(Nc2cnn(C)c2)ncc1Cl; 0.1 to 1 µM
Cn1cc(Nc2ncc(Cl)c(NC(CO)Cc3ccccc3)n2)cn1 (stereo not drawn); 1 to 10 µM
Cn1cc(Nc2ncc(Cl)c(N[C@H](C(=O)N3CCCC3)c3ccccc3)n2)cn1; 1 to 10 µM
CN(C)C(=O)C(Nc1nc(Nc2cnn(CCO)c2)ncc1Cl)c1ccccc1F (stereo not drawn); 1 to 10 µM
Cn1cc(Nc2ncc(Cl)c(N[C@H](CO)c3ccccc3F)n2)cn1; 1 to 10 µM
CNC(=O)Cn1cc(Nc2ncc(Cl)c(NC(CO)c3ccccc3C(F)(F)F)n2)cn1 (stereo not drawn); 1 to 10 µM

Given the entry O=C(O)C(Nc1nc(Nc2cnn(CCO)c2)ncc1Cl)c1ccccc1 (stereo not drawn) , what IC50 was observed with JAK1 (Homo sapiens)?
> 10 µM

Return IC50 measured with JAK1 (Homo sapiens) given this compound: `CNC(=O)Cn1cc(Nc2ncc(C)c(N[C@H](CO)c3ccccc3)n2)cn1`
1 to 10 µM

Item `CCn1cc(Nc2ncc(Cl)c(N[C@H](CO)c3cccc(OC)c3)n2)cn1` with JAK1 (Homo sapiens) - IC50?
1 to 10 µM

Form field: IC50 recorded for CNC(=O)Cn1cc(Nc2ncc(Cl)c(NC(CO)c3ccccc3F)n2)cn1 (stereo not drawn) with JAK1 (Homo sapiens) (enter value)
1 to 10 µM

Item: `O=C(O)Cn1cc(Nc2ncc(Cl)c(N[C@H](CO)c3ccccc3)n2)cn1` Test system: JAK1 (Homo sapiens) Read-out: IC50 Value: ?
1 to 10 µM

Look up IC50 with JAK1 (Homo sapiens) for this compound: `CN(C)C(=O)[C@@H](Nc1nc(Nc2cnn(CCO)c2)ncc1Cl)c1ccccc1`
1 to 10 µM

Can you look up IC50 on JAK1 (Homo sapiens) for `COc1cccc([C@@H](CO)Nc2nc(Nc3cnn(CCO)c3)ncc2Cl)c1` ?
1 to 10 µM

Form: Entry = `OC[C@@H](Nc1nc(Nc2cn[nH]c2)ncc1Cl)c1cccc(F)c1` | System = JAK1 (Homo sapiens) | IC50 = ____
0.1 to 1 µM

Can you look up IC50 on JAK1 (Homo sapiens) for `COc1cccc([C@@H](CO)Nc2nc(Nc3cnn(CC(N)=O)c3)ncc2Cl)c1` ?
1 to 10 µM

Entry `Cn1cc(Nc2ncc(Cl)c(N[C@H](CO)c3cccc(F)c3)n2)cn1` , system JAK1 (Homo sapiens): what IC50 was measured?
0.1 to 1 µM
